Values compiled from ChEMBL document CHEMBL5352481.

- Study Target: Alpha-L-iduronidase (Homo sapiens)
- Sequence (P35475 whole entry): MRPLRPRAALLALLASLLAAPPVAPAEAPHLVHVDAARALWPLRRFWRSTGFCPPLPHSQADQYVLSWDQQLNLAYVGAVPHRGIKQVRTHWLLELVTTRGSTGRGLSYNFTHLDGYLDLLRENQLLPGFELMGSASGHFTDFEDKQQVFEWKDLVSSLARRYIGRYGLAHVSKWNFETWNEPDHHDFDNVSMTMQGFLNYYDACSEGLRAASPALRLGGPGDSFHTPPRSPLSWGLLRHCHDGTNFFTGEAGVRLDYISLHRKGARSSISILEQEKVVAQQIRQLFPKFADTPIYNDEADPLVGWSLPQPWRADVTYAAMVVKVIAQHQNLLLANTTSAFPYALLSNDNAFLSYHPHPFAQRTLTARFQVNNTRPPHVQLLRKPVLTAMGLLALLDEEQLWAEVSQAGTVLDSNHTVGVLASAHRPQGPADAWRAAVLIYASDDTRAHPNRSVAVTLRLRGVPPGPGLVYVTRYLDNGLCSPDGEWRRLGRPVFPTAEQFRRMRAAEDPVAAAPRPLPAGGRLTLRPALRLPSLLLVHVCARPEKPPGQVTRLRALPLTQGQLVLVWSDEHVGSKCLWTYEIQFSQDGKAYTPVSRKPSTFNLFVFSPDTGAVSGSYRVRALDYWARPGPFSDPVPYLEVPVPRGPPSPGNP
- Assay Protocol: Inhibition of human alpha-L-iduronidase using 4-methylumbelliferyl-alpha-L-iduronide as substrate assessed as inhibition constant

Smiles Str: O=C1N[C@@H](C(=O)O)[C@@H](O)[C@H](O)[C@H]1O
Ki: 94 µM
--
Smiles Str: O=C(O)[C@H]1[C@@H](O)[C@H](O)[C@@H](O)c2nnnn21
Ki: 1300 µM

###

- Study Target: Alpha-L-iduronidase (Homo sapiens) (UniProt P35475)
- Assay Protocol: Stabilization of human recombinant alpha-L-iduronidase in human GM01391 cells assessed as increase in IDUA activity at 100 uM incubated for 1 day followed by 1 day washout
- Assay type: cell-based
The source made the active and inactive calls. The rule behind the calls is not given here.
Classes used: active, inactive

Smiles Str: O=C(Cc1ccc(OP(=O)(O)O)cc1)NCC[C@@H]1O[C@@H](C(=O)O)[C@@H](O)[C@H](O)[C@H]1O
Study Target: Alpha-L-iduronidase (Homo sapiens) (UniProt P35475)
Assigned Class: active
//
Smiles Str: O=C(Cc1ccccc1OP(=O)(O)O)NCC[C@@H]1O[C@@H](C(=O)O)[C@@H](O)[C@H](O)[C@H]1O
Study Target: Alpha-L-iduronidase (Homo sapiens) (UniProt P35475)
Assigned Class: inactive
//
Smiles Str: NCC[C@@H]1N[C@@H](C(=O)O)[C@@H](O)[C@H](O)[C@H]1O
Study Target: Alpha-L-iduronidase (Homo sapiens) (UniProt P35475)
Assigned Class: inactive
//
Smiles Str: O=C(Cc1cccc(OP(=O)(O)O)c1)NCC[C@@H]1N[C@@H](C(=O)O)[C@@H](O)[C@H](O)[C@H]1O
Study Target: Alpha-L-iduronidase (Homo sapiens) (UniProt P35475)
Assigned Class: inactive
//
Smiles Str: O=C(Cc1ccccc1OP(=O)(O)O)NCC[C@@H]1N[C@@H](C(=O)O)[C@@H](O)[C@H](O)[C@H]1O
Study Target: Alpha-L-iduronidase (Homo sapiens) (UniProt P35475)
Assigned Class: inactive
//
Smiles Str: O=C(Cc1ccc(OP(=O)(O)O)cc1)NCC[C@@H]1N[C@@H](C(=O)O)[C@@H](O)[C@H](O)[C@H]1O
Study Target: Alpha-L-iduronidase (Homo sapiens) (UniProt P35475)
Assigned Class: inactive
